- PROCEDURE SUMMARY: Suppression of CD23 expression in IL4 and anti-CD40 antibody sensitized mouse splenocytes
- RECORDED CONDITIONS: Splenocyte
MEASURED ENDPOINT: pIC50
Lab note: report pIC50 as minus log10 of the concentration in molar units, number only.

Input line: Return reported pIC50; argument: `O=C(Nc1ccccn1)c1ccc2[nH]c(-c3ccc(NC(=O)C45CC6CC(CC(C6)C4)C5)cc3)nc2c1`
Output line: 7.40
